// provenance: patent US9708251B2

Experiment: Emulsion stability testing of nonionic emulsifiers, Hallcomid solvent series
Type: physicochemical
Settings: Tebuconazole 360 g/L in Hallcomid M-8-10, 34 ppm water
Measure: 1 h separation, amount (mL)
Write the answer as a number in mL, unit excluded.

Compound	1 h separation, amount (mL)
C=CCCCCCCCCOCCOCCOCCOCCOCCOCCOCCO	2.1

Query: Tell me the measured 1 h separation, amount of C=CCCCCCCCCOCCOCCOCCOCCOCCOCCOCCOCCOCCOCCOCCOCCOCCOCCOCCO , please.
Response: 1

###

Assay: Agrichemical solvent analysis: active solubility
Type: physicochemical
Conditions: room temperature
Quick reference: solubility of 2,4-D Acid in the solvent of the listed items.
Write the answer as a number in weight percent, unit excluded.

Known results for molecules:
Molecule	solubility of 2,4-D Acid in the solvent, weight percent
CCCCCCCCCC(=O)N(C)C [N,N-dimethylcapramide, reference compound]	45.4
C=CCCCCCCCCOCCOCCOCCO	29.5

Query: Tell me the measured solubility of 2,4-D Acid in the solvent of CN1CCCC1=O [N-methyl-2-pyrrolidone, reference compound] , please.
Response: 39.5

Query: // same read-out, input: C=CCCCCCCCCOCCOCCOCCOCCOCCO
Response: 29.8

###

Experiment: Emulsion stability testing of nonionic emulsifiers, Hallcomid solvent series
Assay type: physicochemical
Settings: 2,4-D diester 480 g/L in Hallcomid M-8-10, 34 ppm water
Measure: 24 h separation, amount (mL)
Write the answer as a number in mL, unit excluded.

Known results for molecules:
Molecule	Readout Units	24 h separation, amount
C=CCCCCCCCCOCCOCCOCCOCCOCCOCCOCCOCCOCCOCCOCCOCCOCCOCCOCCO	mL	8.5
CCC=CCCCCCCCCOCCOCCOCCO (mixture of isomers)	mL	10
C=CCCCCCCCCOCCOCCOCCOCCOCCO	mL	9.9
C=CCCCCCCCCOCCO	mL	9.5

Moving on to another molecule below.
Query: Tell me the measured 24 h separation, amount of CCC=CCCCCCCCCOCCOCCOCCOCCOCCOCCOCCO (mixture of isomers) , please.
Response: 9.6

###

Quick reference: solubility of Imidacloprid in the solvent of the listed items.
Assay: Agrichemical solvent analysis: active solubility
Format: physicochemical
Details: room temperature
Write the answer as a number in weight percent, unit excluded.

Known results for compounds:
Compound	Readout Units	Test Result
C=CCCCCCCCCOCCOCCOCCO [A10-7]	weight percent	2.9
CN1CCCC1=O [N-methyl-2-pyrrolidone, reference compound]	weight percent	29.3
CCCCCCCCCC(=O)N(C)C [N,N-dimethylcapramide, reference compound]	weight percent	4.2

Query: Tell me the measured solubility of Imidacloprid in the solvent of C=CCCCCCCCCOCCOCCOCCOCCOCCO [A10-10] , please.
Response: 2.8

###

Experiment: Emulsion stability testing of nonionic emulsifiers, aromatic solvent series
Assay type: physicochemical
Details: Tebuconazole 360 g/L in N-methyl-2-pyrrolidone, 34 ppm water
Quick reference: 24 h separation, amount of the listed items.
Write the answer as a number in mL, unit excluded.

Known results for compounds:
Compound	Test Result
C=CCCCCCCCCOCCOCCOCCO	3
CCC=CCCCCCCCCOCCOCCOCCOCCOCCOCCOCCOCCOCCOCCOCCOCCOCCOCCOCCO (mixture of isomers)	3
C=CCCCCCCCCOCCOCCOCCOCCOCCOCCOCCO	2.8
C=CCCCCCCCCOCCOCCOCCOCCOCCO	2.5

Moving on to another compound below.
Query: Tell me the measured 24 h separation, amount of C=CCCCCCCCCOCCO , please.
Response: 3

###

Test: Emulsion stability testing of nonionic emulsifiers, Hallcomid solvent series
Format: physicochemical
Set-up: key: C = creamy; CO = creamy oil; O = oil; GC = gritty cream; NS = no separation; OC = oily cream
Conditions: Bifenthrin 240 g/L in Hallcomid M-8-10, 1000 ppm water

Molecule	1 h separation, appearance
CCC=CCCCCCCCCOCCOCCOCCOCCOCCOCCOCCOCCOCCOCCOCCOCCOCCOCCOCCO (mixture of isomers) [A12-16]	CO
CCC=CCCCCCCCCOCCOCCOCCOCCOCCOCCOCCO (mixture of isomers) [A12-13]	CO
C=CCCCCCCCCOCCOCCOCCOCCOCCOCCOCCO [A10-13]	CO
CCC=CCCCCCCCCOCCOCCOCCO (mixture of isomers) [A12-7]	C

###

Assay: Emulsion stability testing of nonionic emulsifiers, Hallcomid solvent series
Format: physicochemical
Parameters: key: G = good; F = fair; P = poor
Details: Bifenthrin 240 g/L in Hallcomid M-8-10, 34 ppm water
Measure: Spon. (spontaneity)

Molecule	Test Result
C=CCCCCCCCCOCCOCCOCCO	F
CCC=CCCCCCCCCOCCOCCOCCOCCOCCOCCOCCOCCOCCOCCOCCOCCOCCOCCOCCO (mixture of isomers)	G
C=CCCCCCCCCOCCOCCOCCOCCOCCO	G
CCC=CCCCCCCCCOCCOCCOCCO (mixture of isomers)	G
CCC=CCCCCCCCCOCCO (mixture of isomers)	G

Query: Tell me the measured Spon. (spontaneity) of C=CCCCCCCCCOCCO , please.
Response: F

Query: // same read-out, input: C=CCCCCCCCCOCCOCCOCCOCCOCCOCCOCCOCCOCCOCCOCCOCCOCCOCCOCCO
Response: G

Query: // same read-out, input: C=CCCCCCCCCOCCOCCOCCOCCOCCOCCOCCO
Response: G

Query: // same read-out, input: CCC=CCCCCCCCCOCCOCCOCCOCCOCCO (mixture of isomers)
Response: G

Query: // same read-out, input: CCC=CCCCCCCCCOCCOCCOCCOCCOCCOCCOCCO (mixture of isomers)
Response: G

###

Assay: Emulsion stability testing of nonionic emulsifiers, aromatic solvent series
Format: physicochemical
Design: key: C = creamy; CO = creamy oil; O = oil; GC = gritty cream; NS = no separation; OC = oily cream
Details: 2,4-D ester 480 g/L in Exxsol D-110, 1000 ppm water
Measure: 24 h separation, appearance

Known results for compounds:
Compound	Test Result
C=CCCCCCCCCOCCO	O
CCC=CCCCCCCCCOCCOCCOCCOCCOCCOCCOCCOCCOCCOCCOCCOCCOCCOCCOCCO (mixture of isomers)	C
CCC=CCCCCCCCCOCCO (mixture of isomers)	O
CCC=CCCCCCCCCOCCOCCOCCOCCOCCOCCOCCO (mixture of isomers)	CO

Query: Tell me the measured 24 h separation, appearance of C=CCCCCCCCCOCCOCCOCCO , please.
Response: O

Query: // same read-out, input: C=CCCCCCCCCOCCOCCOCCOCCOCCOCCOCCOCCOCCOCCOCCOCCOCCOCCOCCO
Response: C

###

Assay: Emulsion stability testing of nonionic emulsifiers, Hallcomid solvent series
Type: physicochemical
Set-up: key: G = good; F = fair; P = poor
Details: 2,4-D diester 480 g/L in Hallcomid M-8-10, 1000 ppm water
Experimental: Nonionic samples contain a low amount of water (<1%) and are prepared as emulsifiable concentrates with three pesticides using two different solvent systems. In the aromatic solvent series, the nonionic sample replaces Toximul® 8240 (castor oil ethoxylate, 36 POE, Stepan), and in the Hallcomid™ (N,N-dimethylcaprylamide/N,N-dimethylcapramide, Stepan) solvent series, the nonionic sample replaces Ninex® MT-630F. Hallcomid Solvent Series. […]
Measure: Spon. (spontaneity)

Compound	Spon. (spontaneity)
CCC=CCCCCCCCCOCCOCCOCCOCCOCCO (mixture of isomers) [A12-10]	F
C=CCCCCCCCCOCCOCCOCCO [A10-7]	F
C=CCCCCCCCCOCCO [A10-4]	F
CCC=CCCCCCCCCOCCOCCOCCOCCOCCOCCOCCO (mixture of isomers) [A12-13]	F
C=CCCCCCCCCOCCOCCOCCOCCOCCOCCOCCO [A10-13]	F
CCC=CCCCCCCCCOCCOCCOCCOCCOCCOCCOCCOCCOCCOCCOCCOCCOCCOCCOCCO (mixture of isomers) [A12-16]	P
C=CCCCCCCCCOCCOCCOCCOCCOCCO [A10-10]	F
C=CCCCCCCCCOCCOCCOCCOCCOCCOCCOCCOCCOCCOCCOCCOCCOCCOCCOCCO [A10-16]	P

Query: Tell me the measured Spon. (spontaneity) of CCC=CCCCCCCCCOCCO (mixture of isomers) [A12-4] , please.
Response: F

Query: // same read-out, input: CCC=CCCCCCCCCOCCOCCOCCO (mixture of isomers) [A12-7]
Response: F

###

Test: Emulsion stability testing of nonionic emulsifiers, aromatic solvent series
Assay type: physicochemical
Set-up: key: G = good; F = fair; P = poor
Conditions: Bifenthrin 240 g/L in Aromatic 100, 34 ppm water
Measure: Spon. (spontaneity)

Compound	Test Result
CCC=CCCCCCCCCOCCOCCOCCO (mixture of isomers)	P
CCC=CCCCCCCCCOCCO (mixture of isomers)	P
C=CCCCCCCCCOCCOCCOCCOCCOCCO	F
CCC=CCCCCCCCCOCCOCCOCCOCCOCCOCCOCCOCCOCCOCCOCCOCCOCCOCCOCCO (mixture of isomers)	F
C=CCCCCCCCCOCCOCCOCCOCCOCCOCCOCCOCCOCCOCCOCCOCCOCCOCCOCCO	P
C=CCCCCCCCCOCCO	P
CCC=CCCCCCCCCOCCOCCOCCOCCOCCO (mixture of isomers)	F
C=CCCCCCCCCOCCOCCOCCO	P

Query: Tell me the measured Spon. (spontaneity) of C=CCCCCCCCCOCCOCCOCCOCCOCCOCCOCCO , please.
Response: F

Query: // same read-out, input: CCC=CCCCCCCCCOCCOCCOCCOCCOCCOCCOCCO (mixture of isomers)
Response: F
